# Test system: S. aureus ATCC 29213
# testDetails: Microdilution broth MIC/MBC
# Type: cell-based, Staphylococcus aureus
# assaySetup: synthesized identified peptides
Ends that are not written are not given here.
measuredEndpoint: MIC (mM)
Hi! Could you send only the number? It should be in mM, unit omitted.

Reported MIC (S. aureus ATCC 29213) for entry CASALLGA [CASALLGA] is 4

The observed MIC for KGGDLGLFEPTL [KGGDLGLFEPTL] when tested with S. aureus ATCC 29213 stands at 2

---

Would you mind telling me the reported MIC of each entry?
# System: S. aureus ATCC 29213
# testDetails: Microdilution broth MIC/MBC
# Type: cell-based, Staphylococcus aureus
# assaySetup: synthesized identified peptides
Ends that are not written are not given here.

Input HAAHTTGLGGPF [HAAHTTGLGGPF] . Output MIC: >4 mM

MIC reading for KVLPLPFGGRSPGGGA [KVLPLPFGGRSPGGGA] : >4 mM

Value of measured MIC for the entry VTLKVPGVTL [VTLKVPGVTL] : >4 mM
